The reported measurements were obtained from ChEMBL document CHEMBL1132169.

Target: Sodium-dependent dopamine transporter (Rattus norvegicus)
Assay: Discrimination ratio of compound is the ratio of inhibitory activity against [3H]dopamine uptake over [3H][…] binding
measured_attribute: Discrimination ratio
Give bare numbers.

See these solved cases before continuing.
Data request, read-out Discrimination ratio, for NCC1C2CCC(CC2)C1c1cccc(Cl)c1 (stereo in doubt; 5b) 4.7

Data request, read-out Discrimination ratio, for COc1cccc(C2C3CCC(C3)C2CN)c1 (stereo in doubt; 9f) 3.3

Data request, read-out Discrimination ratio, for NCC1C2CCC(C2)C1c1ccc(Cl)c(Cl)c1 (stereo in doubt; 13d) 4.6

Data request, read-out Discrimination ratio, for COc1ccc(C2C3CCC(C3)C2CN)cc1 (stereo in doubt; 13g) 4.6

Data request, read-out Discrimination ratio, for NCC1C2CCC(C2)C1c1ccc(Cl)cc1 (stereo in doubt; 13c) 5.3

Data request, read-out Discrimination ratio, for CN(C)CC1C2CCC(CC2)C1c1ccccc1 (stereo in doubt; 8a) 3.1

Data request, read-out Discrimination ratio, for CN(C)CC1C2CCC(CC2)C1c1ccc(Cl)c(Cl)c1 (stereo in doubt; 8d) 2.1

Data request, read-out Discrimination ratio, for CN(C)CC1C2CCC(C2)C1c1ccccc1 (stereo in doubt; 12a) 1.7

Take each entry in turn and give its Discrimination ratio.
1. NCC1C2CCC(C2)C1c1ccccc1 (stereo in doubt; 9a)
2. CN(C)CC1C2CCC(C2)C1c1ccccc1 (stereo in doubt; 10a)

1. 6.5
2. 2.1
